Each entry below lists one item and its recorded Enzyme Activity Endpoint Assay (purified): scIgG value.
target: pooled human IgG (human IgG1, 2, 3 and 4)
readout type: Enzyme Activity Endpoint Assay (purified): scIgG (ng/µL)

protein | measurement
PRT-434 (protein) MSQTEDSESLQRLRDIEDFQAEKKKQNVVYTKWLDGVDVKDHDFRKIVDGNIAYYATPLLNGRGFYDINKDFNRDSDKCAAAVAANMFHYWLDRNRDNVDRFLRQNPEKHGIIELPDGQLKLSDFLNTYESDDGYRDKSKLFDFISNNFNGPVWTDKLLDNYINGYAYNYKYGRTIEDPTKNTSKINFFKEVFNEKILTNNHSIRNQNEFSVLLSEALYTGKAIGLSYGPAGLRHGLGHIISVWGADLDADGNVVAIYVTDSDDKKLTIGDERVGLKRYKISTDDEGRLRLTAYEETHNTGGQIRGLWTLDTGKQAWADYFDKTEQTGTDQAEQ | 234
PRT-399 (protein) MVTSVWTKGVTPPADFTQGEDVFHAPYVANQGWYDITKTFNGKDDLLCGAATAGNMLHWWFDQNKEYIEAYLKKHPEKQKIMFGDQELLDVRKAINTKGSQKNSELFNYFRDKAFPNLSARRLGVMPDLVLDMFINGYYLNVTKTQTTDVNRTYQEKDKRGGIFDAVFTRGDQSKLLTSRHDFKEKGLKEISDLIKQELTEGKALGLSHTYANVRINHVINLWGADFDSDGNLKAIYVTDSDSNASIGMKKYVVGVNSAGKVAISAKEIKEDNIGAQVLGLFTLSTGQDIWNQTN | 0
PRT-449 (protein) MVTSVWTKGVTPPTDFRKIVDGNIAYYHAPYKAGQGWYDITKTFNGKDDLLCGAATAGNMLHWWFDQNKDQIEAYLKEHPEKQKINFNGEQMFDVKEAIDTKDDQTNSKLFEYFKEKAFPYLSTKHLGVFPDHVLDMFINGYRLSLTNHGPTPVKEGSKDPRGGIFDAVFTRGDQSKLLTSRHDFKEKTLKEISDLIKQELTEGKALALSHTYANVRINHVINLWGADFDSNGNLEAIYVTDSDSNASIGMKKYFVGVNSAGKVAISAKEIEDDNIGAQVLGLFTLSTGQDIWNQTNLEHHHHHH | 0
PRT-406 (protein) MVTSVWTKGVTPPADFTQGEDVFHAPYVANQGWYDITKTFNRKDDLLCGAATAGNMLHWWFDQNKEYIEAYLKKHPEKQKIMFGDQELLDVRKAINTKGSQKNSELFNYFRDKAFPNLSARRLGVMPDLVLDMFINGYYLNVTKTQTTDVNRTYQEKDKRGGIFDAVFTRGDQSKLLTSRHDFKEKGLKEISDLIKQELTEGKALGLSHTYANVRINHVINLWGADFDSDGNLKAIYVTDSDSNASIGMKKYFVGVNSAGKVAISAKEIKEDNIGAQVLGLFTLSTGQDIWNQTN | 108

Source listed as patent US20250027068.
